This collection of values is drawn from ChEMBL document CHEMBL2046410.

Target: Voltage-gated inwardly rectifying potassium channel KCNH2 (Homo sapiens)
Sequence (Q12809 whole entry): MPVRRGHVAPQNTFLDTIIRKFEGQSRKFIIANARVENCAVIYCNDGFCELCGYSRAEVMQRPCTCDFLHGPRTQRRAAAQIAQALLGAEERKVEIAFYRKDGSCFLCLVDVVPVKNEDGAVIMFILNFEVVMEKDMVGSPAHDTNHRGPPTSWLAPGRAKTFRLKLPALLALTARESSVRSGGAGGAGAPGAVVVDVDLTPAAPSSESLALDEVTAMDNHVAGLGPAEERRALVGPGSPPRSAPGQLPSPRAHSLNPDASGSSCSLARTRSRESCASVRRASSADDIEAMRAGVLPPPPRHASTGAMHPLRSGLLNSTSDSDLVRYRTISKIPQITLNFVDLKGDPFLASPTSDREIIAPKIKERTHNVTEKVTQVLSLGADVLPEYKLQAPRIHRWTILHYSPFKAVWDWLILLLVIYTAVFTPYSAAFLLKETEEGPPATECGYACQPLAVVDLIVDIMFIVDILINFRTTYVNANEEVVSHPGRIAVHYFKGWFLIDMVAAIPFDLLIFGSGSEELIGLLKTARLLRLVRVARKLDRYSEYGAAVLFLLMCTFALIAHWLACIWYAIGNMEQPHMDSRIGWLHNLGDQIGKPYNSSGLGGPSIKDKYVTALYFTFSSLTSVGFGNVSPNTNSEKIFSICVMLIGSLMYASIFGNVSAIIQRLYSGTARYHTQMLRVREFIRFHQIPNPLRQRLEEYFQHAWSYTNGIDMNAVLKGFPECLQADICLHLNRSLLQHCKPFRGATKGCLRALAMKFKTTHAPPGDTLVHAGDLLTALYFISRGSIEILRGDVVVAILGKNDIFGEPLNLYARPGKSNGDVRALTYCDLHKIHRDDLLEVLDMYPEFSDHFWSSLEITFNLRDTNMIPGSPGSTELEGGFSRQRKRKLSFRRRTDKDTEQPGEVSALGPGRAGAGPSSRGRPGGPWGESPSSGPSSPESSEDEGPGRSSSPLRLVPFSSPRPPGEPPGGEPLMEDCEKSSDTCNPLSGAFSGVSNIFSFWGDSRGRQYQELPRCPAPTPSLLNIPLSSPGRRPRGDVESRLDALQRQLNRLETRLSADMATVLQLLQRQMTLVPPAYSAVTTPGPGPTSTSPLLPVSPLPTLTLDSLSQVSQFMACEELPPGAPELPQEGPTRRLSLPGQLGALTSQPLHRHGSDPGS
Test: Inhibition of human ERG expressed in HEK cells by patch clamp assay
Assay type: cell-based, HEK293
Conditions: read-out: IC50
pIC50: −log10 of the molar value.
Endpoint label: pIC50

molecule=O=C(CCc1ccccc1)NCCN(c1ccc(F)cc1)c1ccc(F)cc1 reported=6.72
molecule=Fc1ccc(N(CCNCCCc2ccccc2)c2ccc(F)cc2)cc1 reported=8.62
molecule=c1ccc(CCCNCCC(c2ccccc2)c2ccccc2)cc1 reported=7.77
molecule=c1ccc(CCCNCCN(c2ccccc2)c2ccccc2)cc1 reported=6.24
molecule=O=C(Cc1ccccc1)NCCN(c1ccccc1)c1ccccc1 reported=5.10
molecule=c1ccc(CCNCCC(c2ccccc2)c2ccccc2)cc1 reported=5.55
